Test target: DNA topoisomerase 1 (Homo sapiens) (UniProt P11387)
Protocol: Inhibition of human DNA topoisomerase 1-mediated relaxation of supercoiled DNA at 63 to 125 uM
Activity calls are given as the source filed them. The rule behind the calls is not given here.
Recorded endpoint: inhibition

{"columns": ["Molecule", "Assay value"],
 "data": [
  ["C/C=C(/C)C(=O)O[C@H]1[C@H](OC(=O)C(C)CC)[C@]2(CO)[C@H](O)C[C@]3(C)C(=CC[C@@H]4[C@@]5(C)CC[C@H](O[C@@H]6O[C@H](C(=O)O)[C@@H](O)[C@H](O[C@@H]7O[C@@H](CO)[C@H](O)[C@H]7O)[C@H]6O[C@@H]6O[C@H](CO)[C@H](O)[C@H](O)[C@H]6O)C(C)(C)[C@@H]5CC[C@]43C)[C@@H]2CC1(C)C (stereo partly drawn) [AESCULIOSIDE IVC]", "Active"],
  ["C/C=C(/C)C(=O)O[C@H]1[C@H](OC(=O)/C(C)=C/C)C(C)(C)C[C@H]2C3=CC[C@@H]4[C@@]5(C)CC[C@H](O[C@@H]6O[C@H](C(=O)O)[C@@H](O)[C@H](O[C@@H]7O[C@@H](CO)[C@H](O)[C@H]7O)[C@H]6O[C@@H]6O[C@H](CO)[C@@H](O)[C@H](O)[C@H]6O)[C@](C)(CO)[C@@H]5CC[C@@]4(C)[C@]3(C)[C@@H](O)[C@@H](O)[C@]21CO [AESCULIOSIDE IIIE]", "Active"],
  ["C/C=C(/C)C(=O)O[C@H]1[C@H](OC(=O)/C(C)=C\\C)[C@]2(CO)[C@H](O)[C@H](O)[C@]3(C)C(=CC[C@@H]4[C@@]5(C)CC[C@H](O[C@@H]6O[C@H](C(=O)O)[C@@H](O)[C@H](O[C@@H]7O[C@@H](CO)[C@H](O)[C@H]7O)[C@H]6O[C@@H]6O[C@H](CO)[C@H](O)[C@H](O)[C@H]6O)C(C)(C)[C@@H]5CC[C@]43C)[C@@H]2CC1(C)C", "Active"]
]}

* * *

Test target: DNA topoisomerase 1 (Homo sapiens, UniProt P11387)
Sequence (P11387 whole entry): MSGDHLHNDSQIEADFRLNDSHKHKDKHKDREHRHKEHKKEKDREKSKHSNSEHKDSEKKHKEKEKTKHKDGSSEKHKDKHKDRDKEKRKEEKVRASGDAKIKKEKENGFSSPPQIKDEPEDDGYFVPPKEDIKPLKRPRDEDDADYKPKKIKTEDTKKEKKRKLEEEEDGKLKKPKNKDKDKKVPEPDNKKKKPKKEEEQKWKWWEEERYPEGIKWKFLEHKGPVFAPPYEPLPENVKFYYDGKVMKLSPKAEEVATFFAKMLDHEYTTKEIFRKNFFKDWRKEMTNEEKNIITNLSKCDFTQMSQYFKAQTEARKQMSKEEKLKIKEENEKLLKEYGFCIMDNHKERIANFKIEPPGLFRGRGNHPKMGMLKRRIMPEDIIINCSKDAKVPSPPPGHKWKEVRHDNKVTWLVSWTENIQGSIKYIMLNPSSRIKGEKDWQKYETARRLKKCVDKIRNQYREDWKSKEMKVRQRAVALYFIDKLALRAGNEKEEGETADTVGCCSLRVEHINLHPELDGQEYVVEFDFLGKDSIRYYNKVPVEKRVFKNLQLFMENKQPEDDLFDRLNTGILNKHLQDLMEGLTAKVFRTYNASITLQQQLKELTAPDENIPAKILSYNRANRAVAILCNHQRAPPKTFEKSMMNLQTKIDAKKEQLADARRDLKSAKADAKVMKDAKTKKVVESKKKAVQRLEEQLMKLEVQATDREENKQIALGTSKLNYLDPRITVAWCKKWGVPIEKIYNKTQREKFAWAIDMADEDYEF
Protocol: Inhibition of human DNA topoisomerase 1-mediated relaxation of supercoiled DNA by gel electrophoresis
Property: IC50; scope: individual compounds

Query block: Please report IC50 for the following compound: C[C@H]1[C@H](C)CC[C@]2(C(=O)O[C@@H]3O[C@H](CO)[C@@H](O)[C@H](O)[C@H]3O)CC[C@]3(C(=O)O)C(=CC[C@@H]4[C@@]5(C)CC[C@H](O[C@@H]6O[C@H](CO)[C@@H](O)[C@H](O)[C@H]6O)C(C)(C)[C@@H]5CC[C@]43C)[C@H]12
Result block: > 250 µM

Query block: Name the recorded IC50 of the item C[C@H]1[C@H](C)CC[C@]2(C(=O)O[C@@H]3O[C@H](CO)[C@@H](O)[C@H](O)[C@H]3O[C@@H]3OC[C@H](O)[C@H](O)[C@H]3O)CC[C@]3(C(=O)O)C(=CC[C@@H]4[C@@]5(C)CC[C@H](O[C@@H]6O[C@H](CO)[C@@H](O)[C@H](O)[C@H]6O)C(C)(C)[C@@H]5CC[C@]43C)[C@H]12 in your answer.
Result block: > 250 µM

* * *

Test target: DNA topoisomerase 1 (Homo sapiens) (UniProt P11387)
Protocol: Inhibition of human DNA topoisomerase 1-mediated relaxation of supercoiled DNA at 63 to 125 uM
The source made the active and inactive calls. The calls are words filed in the database; no cut-off is given here.

{"columns": ["Molecule", "Test target", "inhibition"],
 "data": [
  ["C/C=C(/C)C(=O)O[C@H]1[C@H](OC(=O)/C(C)=C\\C)[C@]2(CO)[C@H](O)C[C@]3(C)C(=CC[C@@H]4[C@@]5(C)CC[C@H](O[C@@H]6O[C@H](C(=O)O)[C@@H](O)[C@H](O[C@@H]7O[C@@H](CO)[C@H](O)[C@H]7O)[C@H]6O[C@@H]6O[C@H](CO)[C@@H](O)[C@H](O)[C@H]6O)[C@](C)(CO)[C@@H]5CC[C@]43C)[C@@H]2CC1(C)C", "DNA topoisomerase 1 (Homo sapiens) (UniProt P11387)", "Active"],
  ["C/C=C(/C)C(=O)O[C@H]1[C@H](OC(=O)C(C)CC)[C@]2(CO)[C@H](O)[C@H](O)[C@]3(C)C(=CC[C@@H]4[C@@]5(C)CC[C@H](O[C@@H]6O[C@H](C(=O)O)[C@@H](O)[C@H](O[C@@H]7O[C@@H](CO)[C@H](O)[C@H]7O)[C@H]6O[C@@H]6O[C@H](CO)[C@H](O)[C@H](O)[C@H]6O)C(C)(C)[C@@H]5CC[C@]43C)[C@@H]2CC1(C)C (stereo partly drawn) [AESCULIOSIDE IVA]", "DNA topoisomerase 1 (Homo sapiens) (UniProt P11387)", "Active"],
  ["C/C=C(\\C)C(=O)O[C@H]1[C@H](OC(=O)/C(C)=C/C)[C@]2(CO)[C@H](O)[C@H](O)[C@]3(C)C(=CC[C@@H]4[C@@]5(C)CC[C@H](O[C@@H]6O[C@H](C(=O)O)[C@@H](O)[C@H](O[C@@H]7O[C@@H](CO)[C@H](O)[C@H]7O)[C@H]6O[C@@H]6O[C@H](CO)[C@@H](O)[C@H](O)[C@H]6O)[C@](C)(CO)[C@@H]5CC[C@]43C)[C@@H]2CC1(C)C [AESCULIOSIDE IIID]", "DNA topoisomerase 1 (Homo sapiens) (UniProt P11387)", "Active"]
]}

* * *

Test target: UniProt:Q9WUL0
Sequence (Q9WUL0 whole entry): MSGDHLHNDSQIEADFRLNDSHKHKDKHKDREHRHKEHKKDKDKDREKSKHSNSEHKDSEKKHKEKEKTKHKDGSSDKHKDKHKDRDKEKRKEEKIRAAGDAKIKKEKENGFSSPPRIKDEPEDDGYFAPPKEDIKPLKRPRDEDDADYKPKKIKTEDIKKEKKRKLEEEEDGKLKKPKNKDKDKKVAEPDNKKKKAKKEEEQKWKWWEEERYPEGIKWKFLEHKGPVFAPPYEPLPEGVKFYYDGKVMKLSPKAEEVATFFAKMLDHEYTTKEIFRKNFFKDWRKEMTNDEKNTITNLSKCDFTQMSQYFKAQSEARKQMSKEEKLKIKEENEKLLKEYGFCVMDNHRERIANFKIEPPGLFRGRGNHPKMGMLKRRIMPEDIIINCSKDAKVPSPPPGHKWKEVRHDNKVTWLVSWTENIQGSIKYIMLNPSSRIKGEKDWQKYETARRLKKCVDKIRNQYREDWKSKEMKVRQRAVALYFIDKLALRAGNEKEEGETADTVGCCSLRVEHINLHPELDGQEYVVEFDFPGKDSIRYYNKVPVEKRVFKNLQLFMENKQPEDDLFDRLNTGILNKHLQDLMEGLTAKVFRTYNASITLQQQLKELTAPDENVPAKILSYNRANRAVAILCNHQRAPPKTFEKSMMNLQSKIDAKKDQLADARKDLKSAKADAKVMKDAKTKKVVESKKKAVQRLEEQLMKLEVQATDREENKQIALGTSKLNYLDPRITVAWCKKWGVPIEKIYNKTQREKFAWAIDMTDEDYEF
Protocol: Inhibition of rat liver DNA topoisomerase 1 preincubated before addition of DNA
Recorded endpoint: pIC50
Friendly reminder that pIC50 comes from taking -log10 of the concentration in mol/L.

Query block: Please give the documented pIC50 of O=c1cc(-c2ccc(O)c(O)c2)oc2cc(O)cc(O)c12
Result block: 6.18

* * *

Test target: UniProtKB P11388
Sequence (P11388 whole entry): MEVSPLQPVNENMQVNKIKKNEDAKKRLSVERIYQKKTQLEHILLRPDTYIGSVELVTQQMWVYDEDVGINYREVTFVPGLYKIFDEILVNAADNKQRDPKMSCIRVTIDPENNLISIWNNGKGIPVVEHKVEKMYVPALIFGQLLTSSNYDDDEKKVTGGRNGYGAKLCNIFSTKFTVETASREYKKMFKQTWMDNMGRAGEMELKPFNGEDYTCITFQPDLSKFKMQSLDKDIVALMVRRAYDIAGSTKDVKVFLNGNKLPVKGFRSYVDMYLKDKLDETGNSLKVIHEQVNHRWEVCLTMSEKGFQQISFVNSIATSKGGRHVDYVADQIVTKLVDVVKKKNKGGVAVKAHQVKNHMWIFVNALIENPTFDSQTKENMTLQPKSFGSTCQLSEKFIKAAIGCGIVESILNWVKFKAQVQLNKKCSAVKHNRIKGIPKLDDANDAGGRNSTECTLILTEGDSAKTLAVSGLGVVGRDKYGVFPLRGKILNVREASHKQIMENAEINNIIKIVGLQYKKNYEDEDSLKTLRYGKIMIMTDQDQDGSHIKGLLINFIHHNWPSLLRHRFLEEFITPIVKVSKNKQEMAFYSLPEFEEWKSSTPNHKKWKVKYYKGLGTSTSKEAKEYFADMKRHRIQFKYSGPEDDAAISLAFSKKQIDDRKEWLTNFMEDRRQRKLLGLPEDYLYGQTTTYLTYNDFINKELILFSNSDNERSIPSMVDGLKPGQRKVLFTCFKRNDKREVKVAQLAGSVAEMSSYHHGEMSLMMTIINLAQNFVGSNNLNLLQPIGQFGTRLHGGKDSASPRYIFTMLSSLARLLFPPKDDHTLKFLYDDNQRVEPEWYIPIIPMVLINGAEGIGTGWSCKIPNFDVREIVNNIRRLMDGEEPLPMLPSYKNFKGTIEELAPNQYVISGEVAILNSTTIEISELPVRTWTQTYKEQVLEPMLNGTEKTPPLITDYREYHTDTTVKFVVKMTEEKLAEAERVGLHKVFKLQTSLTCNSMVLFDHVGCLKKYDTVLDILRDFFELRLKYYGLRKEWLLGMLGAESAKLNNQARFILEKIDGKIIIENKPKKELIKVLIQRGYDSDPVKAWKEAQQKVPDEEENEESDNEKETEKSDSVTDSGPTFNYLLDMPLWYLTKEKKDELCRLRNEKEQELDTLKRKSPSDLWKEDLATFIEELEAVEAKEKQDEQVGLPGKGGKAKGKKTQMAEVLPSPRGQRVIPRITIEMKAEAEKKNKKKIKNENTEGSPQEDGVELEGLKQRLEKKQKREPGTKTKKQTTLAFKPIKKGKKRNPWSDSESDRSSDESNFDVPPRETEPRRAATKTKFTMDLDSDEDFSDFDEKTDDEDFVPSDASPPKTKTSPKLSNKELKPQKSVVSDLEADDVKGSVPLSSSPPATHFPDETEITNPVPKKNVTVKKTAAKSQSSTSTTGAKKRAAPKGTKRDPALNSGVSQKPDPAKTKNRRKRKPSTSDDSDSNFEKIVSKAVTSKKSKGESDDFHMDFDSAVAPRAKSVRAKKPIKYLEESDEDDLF
Protocol: Inhibition of human DNA topoisomerase 2-mediated relaxation of supercoiled DNA by gel electrophoresis
pIC50: −log10 of the molar value.
# reported pIC50; entries follow

Would you please look over these solved cases?
{"columns": ["Molecule", "pIC50"],
 "data": [
  ["C/C=C(\\C)C(=O)O[C@H]1[C@H](OC(=O)C(C)CC)[C@]2(CO)[C@H](O)[C@H](O)[C@]3(C)C(=CC[C@@H]4[C@@]5(C)CC[C@H](O[C@@H]6O[C@H](C(=O)O)[C@@H](O)[C@H](O[C@@H]7O[C@@H](CO)[C@H](O)[C@H]7O)[C@H]6O[C@@H]6O[C@H](CO)[C@H](O)[C@H](O)[C@H]6O)C(C)(C)[C@@H]5CC[C@]43C)[C@@H]2CC1(C)C (stereo partly drawn) [AESCULIOSIDE IIIC]", "< 3.60"],
  ["C[C@H]1[C@H](C)CC[C@]2(C(=O)O)CC[C@]3(C(=O)O)C(=CC[C@@H]4[C@@]5(C)CC[C@H](O[C@H]6O[C@@H](C)[C@H](O)[C@@H](O)[C@H]6O)C(C)(C)[C@@H]5CC[C@]43C)[C@H]12", "< 3.60"]
]}

--- query ---
Query block: Using the record for C[C@H]1[C@H](C)CC[C@]2(C(=O)O[C@@H]3O[C@H](CO)[C@@H](O)[C@H](O)[C@H]3O)CC[C@]3(C(=O)O)C(=CC[C@@H]4[C@@]5(C)CC[C@H](O[C@H]6O[C@@H](C)[C@H](O)[C@@H](O)[C@@H]6O)C(C)(C)[C@@H]5CC[C@]43C)[C@H]12 , state its measured pIC50.
Result block: < 3.60
